Molecular target: Mitogen-activated protein kinase 10 (Mus musculus)
Test: JNK3 AlphaScreen Assay (AID 530);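 further: kinase came from lysate of stimulated human HepG2 cells; signal reports phosphorylation of biotinylated GST-cJun 1-79 at Ser73 with 10 µM ATP; on the % scale 0 is the no-effect control and ±100 the full control effect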
Conditions: JNK3 lysate, c-Jun phosphorylation; series mostly up to 57.1 µM
Results filed as inconclusive are left out. The source made the active and inactive calls. The call rests on the fitted dose curve; in most records, active means well fitted curve in either direction with a large enough effect (not every such curve was filed as active); inconclusive means small, poorly fitted or top-dose-only effect, or another doubt; inactive means flat fitted curve, though single readings scatter.

{"SMILES_DATA": "CCCCC(=O)Cl", "EXPERIMENTAL_SYSTEM": "Mitogen-activated protein kinase 10 (Mus musculus)", "activity change, negative = inhibition": "inactive"}
{"SMILES_DATA": "O=[N+]([O-])c1cc(-c2ccc([As](=O)(O)O)cc2)ccc1[As](=O)(O)O", "EXPERIMENTAL_SYSTEM": "Mitogen-activated protein kinase 10 (Mus musculus)", "activity change, negative = inhibition": "2.81% [at 11.4 µM] (inactive)"}
{"SMILES_DATA": "Oc1cc(Cl)cc(Cl)c1", "EXPERIMENTAL_SYSTEM": "Mitogen-activated protein kinase 10 (Mus musculus)", "activity change, negative = inhibition": "inactive"}
{"SMILES_DATA": "CC[C@H]1CN2CCc3cc(OC)c(OC)cc3[C@H]2C[C@@H]1C[C@H]1NCCc2c1[nH]c1ccc(O)cc21", "EXPERIMENTAL_SYSTEM": "Mitogen-activated protein kinase 10 (Mus musculus)", "activity change, negative = inhibition": "-2.73% [at 11.4 µM] (inactive)"}
{"SMILES_DATA": "Clc1ccccc1", "EXPERIMENTAL_SYSTEM": "Mitogen-activated protein kinase 10 (Mus musculus)", "activity change, negative = inhibition": "inactive"}
{"SMILES_DATA": "Cc1ccc(N)cc1N", "EXPERIMENTAL_SYSTEM": "Mitogen-activated protein kinase 10 (Mus musculus)", "activity change, negative = inhibition": "inactive"}
{"SMILES_DATA": "OCCCCO", "EXPERIMENTAL_SYSTEM": "Mitogen-activated protein kinase 10 (Mus musculus)", "activity change, negative = inhibition": "inactive"}
{"SMILES_DATA": "N#Cc1cccc(NC(=O)N2CCCC3(CCN(C(=O)Oc4ccccc4)CC3)C2)c1", "EXPERIMENTAL_SYSTEM": "Mitogen-activated protein kinase 10 (Mus musculus)", "activity change, negative = inhibition": "inactive"}
{"SMILES_DATA": "O=C(N1CCOCC1)C1(c2ccccc2)CCNCC1", "EXPERIMENTAL_SYSTEM": "Mitogen-activated protein kinase 10 (Mus musculus)", "activity change, negative = inhibition": "3.92% [at 11.4 µM] (inactive)"}
{"SMILES_DATA": "CC(=O)OC1=CC2=CC[C@H]3[C@H]4CCC(=O)[C@@]4(C)CC(=O)[C@]3(S)[C@]2(C)CC1", "EXPERIMENTAL_SYSTEM": "Mitogen-activated protein kinase 10 (Mus musculus)", "activity change, negative = inhibition": "-3.16% [at 11.4 µM] (inactive)"}
{"SMILES_DATA": "CC(C)C(=O)CP(=O)(O)O", "EXPERIMENTAL_SYSTEM": "Mitogen-activated protein kinase 10 (Mus musculus)", "activity change, negative = inhibition": "3.33% [at 11.4 µM] (inactive)"}
{"SMILES_DATA": "CCNCC", "EXPERIMENTAL_SYSTEM": "Mitogen-activated protein kinase 10 (Mus musculus)", "activity change, negative = inhibition": "inactive"}
{"SMILES_DATA": "CN(CCC(=O)O)C1=Nc2ccc(Cl)cc2C(c2ccccc2)=[N+]([O-])C1", "EXPERIMENTAL_SYSTEM": "Mitogen-activated protein kinase 10 (Mus musculus)", "activity change, negative = inhibition": "1.43% [at 11.4 µM] (inactive)"}
{"SMILES_DATA": "O=[N+]([O-])c1cc(Cl)c(Cl)c(Cl)c1", "EXPERIMENTAL_SYSTEM": "Mitogen-activated protein kinase 10 (Mus musculus)", "activity change, negative = inhibition": "inactive"}
{"SMILES_DATA": "CC[N+](=O)[O-]", "EXPERIMENTAL_SYSTEM": "Mitogen-activated protein kinase 10 (Mus musculus)", "activity change, negative = inhibition": "inactive"}
{"SMILES_DATA": "Cc1ccc(N)cc1Cl", "EXPERIMENTAL_SYSTEM": "Mitogen-activated protein kinase 10 (Mus musculus)", "activity change, negative = inhibition": "inactive"}
{"SMILES_DATA": "CN(C)CCC(C#N)(c1ccccc1)c1ccccc1", "EXPERIMENTAL_SYSTEM": "Mitogen-activated protein kinase 10 (Mus musculus)", "activity change, negative = inhibition": "2.05% [at 11.4 µM] (inactive)"}
{"SMILES_DATA": "O=C(O)C[O][Sb][O]CC(=O)O", "EXPERIMENTAL_SYSTEM": "Mitogen-activated protein kinase 10 (Mus musculus)", "activity change, negative = inhibition": "1.01% [at 11.4 µM] (inactive)"}
{"SMILES_DATA": "Cc1ccc(S(=O)(=O)O[C@H]2CN3CCC2CC3)cc1", "EXPERIMENTAL_SYSTEM": "Mitogen-activated protein kinase 10 (Mus musculus)", "activity change, negative = inhibition": "5.42% [at 11.4 µM] (inactive)"}
{"SMILES_DATA": "CC(=O)[C@@H]1CC[C@H]2[C@H]3CC[C@H]4C[C@@H](O)CC[C@]4(C)[C@@H]3CC[C@]12C", "EXPERIMENTAL_SYSTEM": "Mitogen-activated protein kinase 10 (Mus musculus)", "activity change, negative = inhibition": "inactive"}
{"SMILES_DATA": "Nc1cc(Cl)cc(Cl)c1", "EXPERIMENTAL_SYSTEM": "Mitogen-activated protein kinase 10 (Mus musculus)", "activity change, negative = inhibition": "inactive"}
{"SMILES_DATA": "ClC(Cl)(Cl)C(Cl)(Cl)Cl", "EXPERIMENTAL_SYSTEM": "Mitogen-activated protein kinase 10 (Mus musculus)", "activity change, negative = inhibition": "inactive"}
{"SMILES_DATA": "CN(C)C(=O)Cl", "EXPERIMENTAL_SYSTEM": "Mitogen-activated protein kinase 10 (Mus musculus)", "activity change, negative = inhibition": "inactive"}
{"SMILES_DATA": "NCCc1c[nH]c2ccc(OC(=O)C(=O)O)cc12", "EXPERIMENTAL_SYSTEM": "Mitogen-activated protein kinase 10 (Mus musculus)", "activity change, negative = inhibition": "8.58% [at 11.4 µM] (inactive)"}
{"SMILES_DATA": "N#CCCCCC#N", "EXPERIMENTAL_SYSTEM": "Mitogen-activated protein kinase 10 (Mus musculus)", "activity change, negative = inhibition": "inactive"}
{"SMILES_DATA": "Oc1c(Cl)c(Cl)cc(Cl)c1Cl", "EXPERIMENTAL_SYSTEM": "Mitogen-activated protein kinase 10 (Mus musculus)", "activity change, negative = inhibition": "inactive"}
{"SMILES_DATA": "CC(C)N[C@@H](C)Cc1ccc(I)cc1", "EXPERIMENTAL_SYSTEM": "Mitogen-activated protein kinase 10 (Mus musculus)", "activity change, negative = inhibition": "inactive"}
{"SMILES_DATA": "CC(C)CC(=O)C[C@H](O)C(Cl)(Cl)Cl", "EXPERIMENTAL_SYSTEM": "Mitogen-activated protein kinase 10 (Mus musculus)", "activity change, negative = inhibition": "5.57% [at 11.4 µM] (inactive)"}

----------
Test: Cell Viability - LYMP2-018 (AID 985);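 further: compound exposure lasted 24 hr at 37 °C; plate controls were DMSO only for no effect and tetraoctylammonium bromide at 92 µM for full effect; nearly all actives have a fitted effect of over 50% in size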
Conditions: LYMP2-018 lymphoblastoid cells, viability (qHTS); series mostly up to 92.2 µM
Records with an inconclusive call do not appear. The source made the active and inactive calls. Calls follow the shape of the dose curve; as a rule, active = well fitted cell-killing curve with a large enough effect; inconclusive = small, poorly fitted or top-dose-only effect; inactive = flat fitted curve, though single readings scatter.
OBSERVED_PROPERTY: outcome

{"COMPOUND": "Oc1ccc(Cl)c(Cl)c1", "OBSERVED_PROPERTY": "outcome", "MEASURED_VALUE": "inactive"}
{"COMPOUND": "CCBr", "OBSERVED_PROPERTY": "outcome", "MEASURED_VALUE": "inactive"}
{"COMPOUND": "BrCCc1ccccc1", "OBSERVED_PROPERTY": "outcome", "MEASURED_VALUE": "inactive"}
{"COMPOUND": "O=S(=O)(Cl)c1ccccc1", "OBSERVED_PROPERTY": "outcome", "MEASURED_VALUE": "inactive"}
{"COMPOUND": "ClCCOCOCCCl", "OBSERVED_PROPERTY": "outcome", "MEASURED_VALUE": "inactive"}
{"COMPOUND": "Cc1cc(Cl)ccc1O", "OBSERVED_PROPERTY": "outcome", "MEASURED_VALUE": "inactive"}
{"COMPOUND": "Cc1cnc[nH]1", "OBSERVED_PROPERTY": "outcome", "MEASURED_VALUE": "inactive"}
{"COMPOUND": "CC12CC1(C)C(=O)N(c1cc(Cl)cc(Cl)c1)C2=O (configuration not stated)", "OBSERVED_PROPERTY": "outcome", "MEASURED_VALUE": "inactive"}
{"COMPOUND": "Nc1ccc([N+](=O)[O-])cc1[N+](=O)[O-]", "OBSERVED_PROPERTY": "outcome", "MEASURED_VALUE": "inactive"}
{"COMPOUND": "Nc1ccc(Cc2ccc(N)cc2)cc1", "OBSERVED_PROPERTY": "outcome", "MEASURED_VALUE": "inactive"}
{"COMPOUND": "CC[N+](=O)[O-]", "OBSERVED_PROPERTY": "outcome", "MEASURED_VALUE": "inactive"}
{"COMPOUND": "ClCC(Br)CBr (configuration not stated)", "OBSERVED_PROPERTY": "outcome", "MEASURED_VALUE": "inactive"}
{"COMPOUND": "Cc1cccc(C)c1N", "OBSERVED_PROPERTY": "outcome", "MEASURED_VALUE": "inactive"}
{"COMPOUND": "CC(C)(Cl)Cl", "OBSERVED_PROPERTY": "outcome", "MEASURED_VALUE": "inactive"}
{"COMPOUND": "Nc1cc(Cl)ccc1O", "OBSERVED_PROPERTY": "outcome", "MEASURED_VALUE": "inactive"}
{"COMPOUND": "Brc1ccc(Oc2ccc(Br)cc2Br)c(Br)c1", "OBSERVED_PROPERTY": "outcome", "MEASURED_VALUE": "inactive"}
{"COMPOUND": "CSSC", "OBSERVED_PROPERTY": "outcome", "MEASURED_VALUE": "inactive"}
